- assay_method_text: Octanol-buffer partition coefficient, log D of the compound at pH 7.4 after 30 mins by shake-flask method
- Assay type: physicochemical
Decide using logD at 0.5 h: a value greater than or equal to 2 is MET, a smaller one is NOT MET.

Reference set (2 entries):
compound	discrete_label
COCCN1CCCC(Cn2c(-c3cccnc3C)nc3cn(-c4ccc(C#N)cc4)nc3c2=O)C1 (racemic)	NOT MET
COc1cccc(-n2cc3nc(-c4cccnc4C)n(C[C@H]4CCCN(C(C)C)C4)c(=O)c3n2)c1	NOT MET

Kindly determine if logD at 0.5 h recorded for Cc1ccccc1-c1nc2cn(-c3cccc(Cl)c3)nc2c(=O)n1CC1CCCN(C(C)C)C1 (racemic) is above or exactly 2.
MET

Item Cc1ccccc1-c1nc2cn(-c3cccc(C#N)c3)nc2c(=O)n1CC1CCCN(C(C)C)C1 (racemic) with logD at 0.5 h of 2 or above?
NOT MET

Confirm if logD at 0.5 h reported for the compound Cc1ncccc1-c1nc2cn(-c3ccccc3)nc2c(=O)n1C[C@H]1CCCN(C[C@H]2CCCO2)C1 is 2 or above.
NOT MET

Entry CCOc1cccc(-n2cc3nc(-c4cccnc4C)n(C[C@H]4CCCN(C[C@H]5CCCO5)C4)c(=O)c3n2)c1 : is its logD at 0.5 h no less than 2?
MET

Is reported logD at 0.5 h greater than or equal to 2 here: COc1cccc(-n2cc3nc(C)n(C[C@H]4CCCN(C[C@H]5CCCO5)C4)c(=O)c3n2)c1
NOT MET
